Molecular target: LmxCLK1 (Leishmania mexicana, UniProt E9AMP2)
Sequence (E9AMP2 1-422): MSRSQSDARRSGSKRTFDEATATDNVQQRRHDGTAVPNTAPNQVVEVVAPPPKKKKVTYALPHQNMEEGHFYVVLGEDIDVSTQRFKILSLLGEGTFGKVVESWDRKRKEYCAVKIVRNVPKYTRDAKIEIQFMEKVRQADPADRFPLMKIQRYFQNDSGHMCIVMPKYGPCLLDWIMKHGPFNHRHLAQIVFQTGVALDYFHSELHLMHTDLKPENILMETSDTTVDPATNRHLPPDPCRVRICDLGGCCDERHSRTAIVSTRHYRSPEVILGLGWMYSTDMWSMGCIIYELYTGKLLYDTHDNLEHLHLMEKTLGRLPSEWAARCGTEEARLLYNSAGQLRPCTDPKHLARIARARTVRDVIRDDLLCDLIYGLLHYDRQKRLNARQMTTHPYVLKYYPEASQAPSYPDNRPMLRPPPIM
Assay: biochemical
Format: binding
Details: DSF, 10 µM compound, 2 µM LmxCLK1, mean of two runs; read-out: ΔTm Average
The compounds listed here are annotated with their ΔTm at 10 µM.
attribute.measured: ΔTm at 10 µM (°C)

INSERT INTO measurements (compound, attribute_measured, recorded_measurement) VALUES
  ('O=C(Nc1ccc(-c2ccnc(Nc3ccc(N4CCOCC4)cc3)n2)cc1)C1CCCN1 (stereo not shown) [XL019]', 'ΔTm at 10 µM', 0.5),
  ('COc1cc(N2CCC(N3CCN(C)CC3)CC2)ccc1Nc1ncc(Cl)c(Nc2ccccc2P(C)(C)=O)n1 [AP26113]', 'ΔTm at 10 µM', 1),
  ('N#CC[C@H](C1CCCC1)n1cc(-c2ncnc3[nH]ccc23)cn1 [Ruxolitinib (INCB018424)]', 'ΔTm at 10 µM', 1),
  ('CNC(=O)c1ccccc1Sc1ccc2c(/C=C/c3ccccn3)n[nH]c2c1 [Axitinib]', 'ΔTm at 10 µM', 0.5);
